runDescription: Clearance in ICR mouse at 1 mg/kg, iv measured upto 24 hrs by LC-MS/MS analysis
Type: ADME, organism-based
testSettings: in vivo

compound	clearance / mL/min/kg
C=CCn1c(=O)c2cnc(Nc3ccc(N4CCC(N5CCN(C)CC5)CC4)cc3)nc2n1-c1cccc(-c2cnccn2)n1	23.8
C=CCn1c(=O)c2cnc(Nc3ccc(N4CCN(C)CC4)cc3)nc2n1-c1cccc(C(C)(C)O)n1 [ADAVOSERTIB]	350
C=CCn1c(=O)c2cnc(Nc3ccc(N4CCNCC4)cc3)nc2n1-c1cccc(-c2ncccn2)n1	82
C=CCn1c(=O)c2cnc(Nc3ccc(N4CCN(C)CC4)cc3)nc2n1-c1cccc(-c2ncccn2)n1	41.2

* * *

runDescription: AUC (0 to 24 hrs) in ICR mouse at 1 mg/kg, iv measured upto 24 hrs by LC-MS/MS analysis
Type: ADME, organism-based
testSettings: in vivo
Under this convention, true (1) denotes AUC(0-t) at 24 h strictly below 200 ng·h/mL and false (0) denotes AUC(0-t) at 24 h at or above 200 ng·h/mL.

C=CCn1c(=O)c2cnc(Nc3ccc(N4CCN(C)CC4)cc3)nc2n1-c1cccc(-c2cnccn2)n1 true (1)
C=CCn1c(=O)c2cnc(Nc3ccc(N4CCN(CCO)CC4)cc3)nc2n1-c1cccc(-c2cnccn2)n1 true (1)
C=CCn1c(=O)c2cnc(Nc3ccc(N4CCC(N5CCN(C)CC5)CC4)cc3)nc2n1-c1cccc(-c2ncccn2)n1 false (0)
C=CCn1c(=O)c2cnc(Nc3ccc(N4[C@@H]5CC[C@H]4CN(C)C5)cc3)nc2n1-c1cccc(-c2ncccn2)n1 true (1)
C=CCn1c(=O)c2cnc(Nc3ccc(C4CCN(C)CC4)cc3)nc2n1-c1cccc(-c2ncccn2)n1 false (0)
C=CCn1c(=O)c2cnc(Nc3ccc(N4CCC(N5CCN(C)CC5)CC4)cc3)nc2n1-c1cccc(-c2cnccn2)n1 false (0)
C=CCn1c(=O)c2cnc(Nc3ccc(N4CCN(CC)CC4)cc3)nc2n1-c1cccc(-c2cnccn2)n1 true (1)
C=CCn1c(=O)c2cnc(Nc3ccc(N4CCN(C)CC4)cc3)nc2n1-c1cccc(C(C)(C)O)n1 true (1)
C=CCn1c(=O)c2cnc(Nc3ccc(N4C[C@@H](C)N[C@@H](C)C4)cc3)nc2n1-c1cccc(-c2ncccn2)n1 true (1)
C=CCn1c(=O)c2cnc(Nc3ccc(N4CCN(C)CC4)cc3)nc2n1-c1cccc(-c2ncc(C)cn2)n1 false (0)
C=CCn1c(=O)c2cnc(Nc3ccc(N4CCN(C)CC4)cc3)nc2n1-c1cccc(-c2ncccn2)n1 false (0)
C=CCn1c(=O)c2cnc(Nc3ccc(N4CCN(C)CC4)cc3)nc2n1-c1cccc(-c2cccnn2)n1 true (1)
C=CCn1c(=O)c2cnc(Nc3ccc(N4C[C@@H](C)N[C@@H](C)C4)cc3)nc2n1-c1cccc(-c2cccnn2)n1 true (1)

* * *

runDescription: Clearance in ICR mouse at 1 mg/kg, iv measured upto 24 hrs by LC-MS/MS analysis
Type: ADME, organism-based
testSettings: in vivo
experimentalEndpoint: log10 clearance (log10 of the value in mL/min/kg)

C=CCn1c(=O)c2cnc(Nc3ccc(N4CCN(C)CC4)cc3)nc2n1-c1cccc(-c2cccnn2)n1 1.95
C=CCn1c(=O)c2cnc(Nc3ccc(N4CCC(N5CCN(C)CC5)CC4)cc3)nc2n1-c1cccc(-c2ncccn2)n1 1.23
C=CCn1c(=O)c2cnc(Nc3ccc(N4CCN(CCO)CC4)cc3)nc2n1-c1cccc(-c2cnccn2)n1 2.34
C=CCn1c(=O)c2cnc(Nc3ccc(N4C[C@@H](C)N[C@@H](C)C4)cc3)nc2n1-c1cccc(-c2ncccn2)n1 2.63
C=CCn1c(=O)c2cnc(Nc3ccc(N4CCN(C)CC4)cc3)nc2n1-c1cccc(-c2cnccn2)n1 2.14

Reference for the values: ChEMBL document CHEMBL5512688
